Each item that follows carries a reported Relative cell survival rate (%).
Test system: T lymphocyte cell line Jurkat E6-1
test_protocol: Cytotoxicity experiment (CCK-8, relative cell survival)
Assay type: cell-based
measurement_setup: 30 μM; 24 hours; untreated cells = 100%
Report as a plain number; the unit % is understood.

Example entries begin here.
compound_smiles=CCCCCC(=O)Nc1ccccc1CNC(=O)c1ccccc1Br reading_unit=% quantitative_result=99
compound_smiles=CCCCCCCCCCCCNC(=O)c1ncc(F)cc1F reading_unit=% quantitative_result=101
compound_smiles=CCCCCC(=O)Nc1ccc(CNC(=O)c2ccccc2Br)cc1 reading_unit=% quantitative_result=97
compound_smiles=CCCCCCCCCCCC(=O)Nc1ccccc1Br reading_unit=% quantitative_result=104

Query string: Report Relative cell survival rate (%) under test system T lymphocyte cell line Jurkat E6-1 for `CCCCCCCCCCCCNC(=O)c1ccccc1C(F)(F)F` .
Result string: 89

Query string: Report Relative cell survival rate (%) under test system T lymphocyte cell line Jurkat E6-1 for `CCCCCC(=O)Nc1cccc(CNC(=O)c2ccccc2Br)c1` .
Result string: 98

Query string: Report Relative cell survival rate (%) under test system T lymphocyte cell line Jurkat E6-1 for `CCCCCCCCCCCCNC(=O)c1cccc(Cl)c1N` .
Result string: 77

Hello, the source for this data is patent US20250296909A1, in case you need it.
